Cited source for all entries: PubChem BioAssay (NCI)

System: HCT-116 colon
Experiment: NCI tumour cell line growth inhibition, 48 h
// reported TGI per item

compound	TGI
Cc1cc(NCc2cc(Nc3ccnc4cc(Cl)ccc34)ccc2F)nc(N2CCN(C)CC2)n1	2.88 µM
O=[N+]([O-])c1cc2c(c([N+](=O)[O-])c1)NCc1ccccc1O2	> 100 µM
CC(C)c1c(O)ccc2c1CCC1C(C)(C)CCCC21C (centres undefined)	31 µM
Cc1ccc(NC(=O)C(=O)CC(=O)c2c(C)n([O-])c3ccccc3[n+]2=O)cc1	37.2 µM
COc1cccc(-c2nc3ccccc3c(=O)[nH]2)c1OC	> 100 µM
Nc1nc2n[nH]nc2c(=O)[nH]1	8.95 µM
C/C=C1/CCC2c3[nH]c4ccccc4c3CCN2C1 (centres undefined)	> 100 µM
COc1ccc(S(=O)(=O)Nc2cc(/C=C\c3cc(OC)c(OC)c(OC)c3)ccc2OC)cc1	> 100 µM
CCCC/C=C1\CCC(C)(CN(C)C)C1=O (centres undefined)	> 100 µM
CC(C)(C)OC(=O)N1CCC2(C)CC(=O)CC=C12 (centres undefined)	> 100 µM
O=C1C=CC2(O)OCCN(CCO)C2=C1 (centres undefined) (tested in a mixture with another compound)	> 100 µM
COC(=O)C1=C(C(=O)OC)SC(=C(Cl)C(=S)Nc2ccccc2O)S1	> 50 µM
Nc1ncnc2c1ncn2C1OC(CO)C(O)C(O)C1O (centres undefined)	> 100 µM
NC(=O)C1Cc2cc3c(cc21)OCO3 (centres undefined)	> 100 µM

* * *

Tested on: 786-0 renal
Assay: NCI tumour cell line growth inhibition, 48 h
// reported TGI per item

molecule	TGI
COC(=O)CCC1CCC(c2cc(F)ccc2F)(S(=O)(=O)c2ccc(Cl)cc2)CC1 (stereo not given)	> 100 µM
COc1cc([C@H]2CC(=O)C[C@H](c3cc(OC)c(OC)c(OC)c3)C23C(=O)c2ccccc2C3=O)cc(OC)c1OC	> 100 µM
CC1=NN(C(=O)CC(=O)Nc2ccc(C)cc2)C(=O)C1N=Nc1ccc(S(=O)(=O)c2ccc(N=NC3C(=O)N(C(=O)CC(=O)Nc4ccc(C)cc4)N=C3C)cc2)cc1 (stereo not given)	> 100 µM
Cc1ccc(NC(=O)C(=O)CC(=O)c2c(C)n([O-])c3ccccc3[n+]2=O)cc1	> 100 µM
c1ccc2cc3[s+]snc3cc2c1	> 100 µM

* * *

System: A549 NSCLC
Experiment: NCI tumour cell line growth inhibition, 48 h

compound	TGI
CN(N)/N=N/c1nc[nH]c1[N+](=O)[O-]	> 100 µM
Nc1[nH]c(=S)c2c(N)n[nH]c2c1C(=O)Nc1ccccc1	> 100 µM
O=C(NNCc1ccco1)c1cc2ccccc2[nH]1	> 100 µM
COc1cccc2c1/c(=C/c1ccc(N(C)C)cc1)c1cc(-c3ccccc3)[n+](C)n12	2.5 µM
Oc1ccc(Cc2nccc3cc(O)c(O)cc23)cc1O	> 100 µM
Cn1ccc2c(C(=O)c3ccccc3)cccc2c1=O	> 100 µM
CC(=O)c1cccc(Nc2nc3ccc(Cl)cc3c3[nH]c4ccccc4c23)c1	8.45 µM
O=C(O)NCC1CCCCC1 (tested in a mixture with another compound)	> 100 µM
COc1ccc(/C(=N\O)c2cc(C)c(OC)c(C)c2)cc1O	> 100 µM
Nc1nc2n[nH]nc2c(=O)[nH]1	> 100 µM
COc1ccc(/C=C(\C#N)n2nnc3ccccc32)cc1	> 100 µM
O=c1oc2cc(N=Cc3ccc4c(c3)OCO4)ccc2c2ccccc12	> 100 µM
C=C1C(=O)O[C@H]2[C@H](OC(C)=O)[C@@H](C)CCC/C(C)=C/CC[C@@]3(C)O[C@@H]3C[C@@H]12	34.6 µM
O=C1CCCC(=O)N1CCc1c[nH]c2ccccc12	> 100 µM
CN(C)CCCNc1c(C#N)[n+]([O-])c2cc(Cl)ccc2[n+]1[O-]	31.5 µM
Cc1cc2sc(C)[n+](CCCOS(=O)(=O)[O-])c2cc1C	> 100 µM
Cc1cc2[nH]c(=O)c3c4ccccc4cn3c2cc1C	37.7 µM
